Cited source for all entries: ChEMBL document CHEMBL3603802

Quick reference: inhibition of the listed items.
target_of_assay: DNA (cytosine-5)-methyltransferase 3A (Homo sapiens)
method_notes: Inhibition of human C-terminal DNMT3A at 32 uM after 1 hr by fluorescence assay
The reply should read as a number followed by its unit.

Illustrative cases are given below, each with its answer.
INSERT INTO results (molecule, meas_value) VALUES
  ('O=C(/C(=C/C=C/c1ccccc1)n1cnc2ccccc21)c1ccc(Cl)cc1', '0%'),
  ('CN(C)/C=C(/C(=O)c1ccc(Cl)cc1)n1cnc2ccccc21', '0%'),
  ('O=C(c1ccc(Cl)cc1)C(CSc1ncc[nH]1)n1cnc2ccccc21 (centres undefined)', '38%'),
  ('CCSCC(C(=O)c1ccc(Cl)cc1)n1cnc2ccccc21 (centres undefined)', '45%'),
  ('O=C(Cn1cnc2ccccc21)c1ccc(Cl)cc1', '12%');

The reported value for CCSCC(C(=O)c1ccc(Cl)c(Cl)c1)n1cnc2ccccc21 (centres undefined) in terms of inhibition is 38%

The reported value for CCSCC(C(=O)c1ccc(Cl)cc1)n1cnc2c(N)ncnc21 (centres undefined) in terms of inhibition is 0%

The reported value for CCSCC(C(=O)c1ccc(Cl)cc1)n1cnc2ncnc(N)c21 (centres undefined) in terms of inhibition is 54%

The reported value for O=C(c1ccc(Cl)cc1)C(CSCc1cccc([N+](=O)[O-])c1)n1cnc2ccccc21 (centres undefined) in terms of inhibition is 40%

The reported value for CCOCC(C(=O)c1ccc(Cl)cc1)n1cnc2ncnc(N)c21 (centres undefined) in terms of inhibition is 70%

The reported value for CCSCC(C(=O)c1ccccc1)n1cnc2ccccc21 (centres undefined) in terms of inhibition is 34%

* * *

target_of_assay: DNA (cytosine-5)-methyltransferase 3A (Homo sapiens)
method_notes: Inhibition of human C-terminal DNMT3A at 20 uM after 1 hr by fluorescence assay
Label 0.0 if inhibition falls below 20%; label 1.0 in every other case.

Example entries begin here.
INSERT INTO measurements (compound, assigned_category) VALUES
  ('CCSCC(Cn1cccn1)C(=O)c1ccc(Cl)cc1 (configuration not stated)', 0.0),
  ('O=C(c1ccc(Cl)cc1)C(SC1CCCCC1)n1cnc2ccccc21 (configuration not stated)', 1.0),
  ('CCSCC(C(=O)c1ccc(Cl)cc1)n1cccn1 (configuration not stated)', 0.0);

Let us examine a further case.
Challenge: Does the compound CCSCC(Cn1ccnc1)C(=O)c1ccc(Cl)cc1 (configuration not stated) have recorded inhibition that is 20% or more?
Response given: 0.0

* * *

method_notes: Chemical stability of the compound in DMSO by HPLC analysis
Format: physicochemical
property_measured: Stability

INSERT INTO measurements (compound, meas_value) VALUES
  ('CN(C)/C=C(/C(=O)c1ccc(Cl)cc1)n1cnc2ccccc21', 'Stable'),
  ('CCOCC(C(=O)c1ccc(Cl)cc1)n1cnc2ncnc(N)c21 (centres undefined)', 'Unstable'),
  ('CCSCC(C(=O)c1ccc(Cl)cc1)n1cnc2ccccc21 (centres undefined)', 'Unstable'),
  ('O=C(/C(=C/C=C/c1ccccc1)n1cnc2ccccc21)c1ccc(Cl)cc1', 'Stable');

* * *

target_of_assay: DNA (cytosine-5)-methyltransferase 3A (Homo sapiens, UniProt Q9Y6K1)
Sequence (Q9Y6K1 whole entry, looked up): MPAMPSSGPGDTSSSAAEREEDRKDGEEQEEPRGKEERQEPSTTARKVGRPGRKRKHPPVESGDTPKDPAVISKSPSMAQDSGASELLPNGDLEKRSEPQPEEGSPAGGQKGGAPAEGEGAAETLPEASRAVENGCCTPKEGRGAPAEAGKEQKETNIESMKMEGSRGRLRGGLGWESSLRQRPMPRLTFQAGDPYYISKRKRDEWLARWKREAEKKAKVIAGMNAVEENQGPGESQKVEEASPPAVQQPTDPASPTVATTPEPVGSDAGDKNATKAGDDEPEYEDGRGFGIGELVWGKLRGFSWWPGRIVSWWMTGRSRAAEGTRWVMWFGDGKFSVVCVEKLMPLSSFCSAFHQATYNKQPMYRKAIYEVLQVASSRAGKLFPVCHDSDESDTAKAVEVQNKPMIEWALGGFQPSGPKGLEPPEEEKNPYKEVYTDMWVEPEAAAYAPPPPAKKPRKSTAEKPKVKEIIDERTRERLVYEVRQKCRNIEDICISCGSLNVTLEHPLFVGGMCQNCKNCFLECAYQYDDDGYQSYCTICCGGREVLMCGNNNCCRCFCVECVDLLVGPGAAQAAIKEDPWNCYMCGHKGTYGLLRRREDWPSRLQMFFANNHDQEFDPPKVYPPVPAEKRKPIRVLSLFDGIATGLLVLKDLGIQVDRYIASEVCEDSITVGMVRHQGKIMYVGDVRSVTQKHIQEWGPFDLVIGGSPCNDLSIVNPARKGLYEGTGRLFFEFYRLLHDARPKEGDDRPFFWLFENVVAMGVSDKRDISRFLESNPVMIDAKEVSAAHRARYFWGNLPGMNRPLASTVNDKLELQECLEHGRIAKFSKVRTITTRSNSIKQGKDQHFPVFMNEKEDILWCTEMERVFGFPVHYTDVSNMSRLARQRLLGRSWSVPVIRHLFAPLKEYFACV
method_notes: Inhibition of human C-terminal DNMT3A after 1 hr by fluorescence assay
Quick reference: EC50 of the listed items.
Please respond with the number in µM and leave the unit unwritten.

The reported value for C=C(C(=O)c1ccc(Cl)cc1)n1cnc2ccccc21 in terms of EC50 is 4

The reported value for CCSCC(C(=O)c1ccc(Cl)cc1)n1cnc2ccccc21 (stereo not drawn) in terms of EC50 is 3

The reported value for CCOCC(C(=O)c1ccc(Cl)cc1)n1cnc2ncnc(N)c21 (stereo not drawn) in terms of EC50 is 2.1
